Data origin: ChEMBL document CHEMBL1649200

tested on: Ureaplasma parvum; assay: Antimicrobial activity against Ureaplasma parvum SV1 isolate UHWQ3 after 48 hrs by modified broth microdilution technique; assay type: functional; conditions: SV1 isolate UHWQ3, 48 h
MEASURE NAME: MIC (µg/mL)

Here are 2 compounds together with their reported answers.
C[C@H]1c2cccc(O)c2C(=O)C2=C(O)[C@]3(O)C(=O)C(C(N)=O)=C(O)[C@@H](N(C)C)[C@@H]3[C@@H](O)[C@@H]21.O: 0.25
O=C(O)c1cn(C2CC2)c2cc(N3CCNCC3)c(F)cc2c1=O: 4

P. CN(C)[C@@H]1C(O)=C(C(N)=O)C(=O)[C@@]2(O)C(O)=C3C(=O)c4c(O)cccc4[C@@](C)(O)[C@H]3C[C@@H]12
Q. CC[C@H]1OC(=O)[C@H](C)[C@@H](O[C@H]2C[C@@](C)(OC)[C@@H](O)[C@H](C)O2)[C@H](C)[C@@H](O[C@@H]2O[C@H](C)C[C@H](N(C)C)[C@H]2O)[C@](C)(O)C[C@@H](C)C(=O)[C@H](C)[C@@H](O)[C@]1(C)O
Query string: Given P and Q , report the one with the higher recorded MIC. Lab log: write the label of the selected item as the result.
Result string: Q

* * *

system: Ureaplasma parvum; test: Antimicrobial activity against Ureaplasma parvum SV1 isolate HPA18 after 48 hrs by modified broth microdilution technique; format: functional; conditions: SV1 isolate HPA18, 48 h
MEASURE NAME: MIC (µg/mL)

CN(C)[C@@H]1C(O)=C(C(N)=O)C(=O)[C@@]2(O)C(O)=C3C(=O)c4c(O)cccc4[C@@](C)(O)[C@H]3C[C@@H]12: 2
CC[C@H]1OC(=O)[C@H](C)[C@@H](O[C@H]2C[C@@](C)(OC)[C@@H](O)[C@H](C)O2)[C@H](C)[C@@H](O[C@@H]2O[C@H](C)C[C@H](N(C)C)[C@H]2O)[C@](C)(O)C[C@@H](C)C(=O)[C@H](C)[C@@H](O)[C@]1(C)O: 4

1. C[C@H]1c2cccc(O)c2C(=O)C2=C(O)[C@]3(O)C(=O)C(C(N)=O)=C(O)[C@@H](N(C)C)[C@@H]3[C@@H](O)[C@@H]21.O
2. O=C(O)c1cn(C2CC2)c2cc(N3CCNCC3)c(F)cc2c1=O
Query string: Given 1 and 2 , report the one with the higher recorded MIC. Lab log: write the label of the selected item as the result.
Result string: 2
(2: 8 µg/mL, 1: 0.25 µg/mL)

* * *

tested on: Ureaplasma urealyticum; experiment: Antimicrobial activity against Ureaplasma urealyticum isolate HPA6 after 48 hrs by modified broth microdilution technique; type: functional; conditions: isolate HPA6, 48 h
MEASURE NAME: MIC (µg/mL)

Here are 2 molecules together with their reported answers.
CN(C)[C@@H]1C(O)=C(C(N)=O)C(=O)[C@@]2(O)C(O)=C3C(=O)c4c(O)cccc4[C@@](C)(O)[C@H]3C[C@@H]12: 2
C[C@H]1c2cccc(O)c2C(=O)C2=C(O)[C@]3(O)C(=O)C(C(N)=O)=C(O)[C@@H](N(C)C)[C@@H]3[C@@H](O)[C@@H]21.O: 0.5

a. CC[C@H]1OC(=O)[C@H](C)[C@@H](O[C@H]2C[C@@](C)(OC)[C@@H](O)[C@H](C)O2)[C@H](C)[C@@H](O[C@@H]2O[C@H](C)C[C@H](N(C)C)[C@H]2O)[C@](C)(O)C[C@@H](C)C(=O)[C@H](C)[C@@H](O)[C@]1(C)O
b. O=C(O)c1cn(C2CC2)c2cc(N3CCNCC3)c(F)cc2c1=O
Query string: Field: lower MIC | Options: a / b Lab log: write the label of the selected item as the result.
Result string: b
(b: 4 µg/mL, a: 8 µg/mL)
